Assayed System: T1, rat α-CGRP (Rattus norvegicus, UniProt P01256)
T1 construct: rat α (1-37); purchased GenScript Corporation or Global Peptide Services
T1 sequence (P01256 83-119 limits assumed): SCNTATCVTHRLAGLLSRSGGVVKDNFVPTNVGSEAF
Test Description: Biacore SPR affinity of Fab fragments to N-biotinylated rat α-CGRP on SA chip
Assay type: binding
Applied Conditions: 37° C., screening mode except underlined values
Attribute Measured: α-rat koff (s⁻¹)
Numbers only, in s⁻¹.

Problem: May I ask what α-rat koff has been recorded for M20: G1 variant; L1 R28W; HC-FW3 L99R A100L (antibody, V domains shown) VH: EVQLVESGGGLVQPGGSLRLSCAASGFTFSNYWISWVRQAPGKGLEWVAEIRSESDASATHYAEAVKGRFTISRDNAKNSLYLQMNSLRAEDTAVYYCRLYFDYGLAIQNYWGQGTLVTVSS VL: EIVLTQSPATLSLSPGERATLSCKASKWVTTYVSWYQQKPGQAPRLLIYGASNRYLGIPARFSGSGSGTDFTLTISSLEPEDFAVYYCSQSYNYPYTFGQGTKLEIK ?
Solution: 0.00144
